meta.source: ChEMBL document CHEMBL1142463

tested on: Phospholipase A2 group V (Mus musculus)
Sequence (P97391 whole entry): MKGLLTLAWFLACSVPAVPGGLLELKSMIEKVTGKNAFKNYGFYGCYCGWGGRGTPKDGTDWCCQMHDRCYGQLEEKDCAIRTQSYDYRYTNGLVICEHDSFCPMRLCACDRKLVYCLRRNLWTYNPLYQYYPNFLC
test method notes: Inhibition of mouse sPLA2 group 5
We begin with a simple list: items and their reported IC50.

compound	obs value
CCCCCCCCCCCC(=O)c1cc(C)cc(C(=O)CCCCCCCCCCC)c1O	> 1.6 µM
Cc1c(O)c(C(=O)Cc2ccccc2)c(O)c(C(=O)Cc2ccccc2)c1O	> 1.6 µM
CCCCCCCCCCCC(=O)c1cc(C(=O)CCCCCCCCCCC)c(O)cc1O	> 1.6 µM
CC(=O)c1c(O)c(C)c(O)c(C(C)=O)c1O	> 1.6 µM

Quick note, IC50 for CCCCCCCCCCCC(=O)c1c(O)c(C(=O)CCCCCCCCCCC)c(O)c(C2CC(c3ccc(O)cc3)Oc3cc(O)ccc32)c1O (stereo unspecified) landed at 0.52 µM

// IC50 lookup, compound = CCCCCCCCCCCC(=O)c1c(O)c(C)c(O)c(C(=O)CCCCCCCCCCC)c1O , result: 1.6 µM

----------
# key: entry, value: IC50
tested on: Phospholipase A2, membrane associated (Rattus norvegicus, UniProt P14423)
Sequence (P14423 whole entry): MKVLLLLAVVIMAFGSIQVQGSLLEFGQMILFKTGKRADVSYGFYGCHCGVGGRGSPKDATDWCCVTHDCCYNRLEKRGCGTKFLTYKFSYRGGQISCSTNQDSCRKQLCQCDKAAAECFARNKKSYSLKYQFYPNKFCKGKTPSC

compound	tested on	obs value
Oc1ccc(C2CCc3ccc(O)cc3O2)cc1 (configuration not stated)	Phospholipase A2, membrane associated (Rattus norvegicus, UniProt P14423)	> 3300 nM

Reported IC50 ( CCCCCCCCCCCC(=O)c1c(O)c(C)c(O)c(C(=O)CCCCCCCCCCC)c1O ) = 80 nM

----------
Recorded IC50 for the following compounds
tested on: Phospholipase A2, membrane associated (Mus musculus, UniProt P31482)
Sequence (P31482 whole entry): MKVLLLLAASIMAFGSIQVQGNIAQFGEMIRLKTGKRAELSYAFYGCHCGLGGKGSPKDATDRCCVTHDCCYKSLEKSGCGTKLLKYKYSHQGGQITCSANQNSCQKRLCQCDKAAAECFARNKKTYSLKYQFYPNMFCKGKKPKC

Here's what some known entries look like.
compound	tested on	IC50
Oc1ccc(C2CCc3ccc(O)cc3O2)cc1 (stereo not drawn)	Phospholipase A2, membrane associated (Mus musculus, UniProt P31482)	> 3300 nM
CCCCCCCCCCCC(=O)c1cc(C)cc(C(=O)CCCCCCCCCCC)c1O	Phospholipase A2, membrane associated (Mus musculus, UniProt P31482)	> 1600 nM
CCCCCCCCCCCC(=O)c1c(O)cc(O)c(C(=O)CCCCCCCCCCC)c1O	Phospholipase A2, membrane associated (Mus musculus, UniProt P31482)	110 nM
CCCCCCCCCCCCc1c(O)cc(O)c(C(=O)CCCCCCCCCCC)c1O	Phospholipase A2, membrane associated (Mus musculus, UniProt P31482)	> 1600 nM
CC(=O)c1c(O)c(C)c(O)c(C(C)=O)c1O	Phospholipase A2, membrane associated (Mus musculus, UniProt P31482)	> 1600 nM

Response field IC50 (Phospholipase A2, membrane associated (Mus musculus, UniProt P31482)) for item CCCCCCCCCCCC(=O)c1c(O)c(C(=O)CCCCCCCCCCC)c(O)c(C2CC(c3ccc(O)cc3)Oc3cc(O)ccc32)c1O (stereo not drawn) : 30 nM

Param item: CCCCCCCCCCCC(=O)c1cc(C(=O)CCCCCCCCCCC)c(O)cc1O ; param system: Phospholipase A2, membrane associated (Mus musculus, UniProt P31482); output IC50: > 1600 nM

Entry Cc1c(O)c(C(=O)Cc2ccccc2)c(O)c(C(=O)Cc2ccccc2)c1O ; assay system Phospholipase A2, membrane associated (Mus musculus, UniProt P31482); IC50 recorded at > 1600 nM
